# credit: PubChem BioAssay (EPA / NIEHS)

# method.description: CEETOX_H295R_DOC: CeeTox H295R High-throughput Steroidogenesis Assay for DOC (AID 2283439)
# condition.summary: actives raise or lower the signal
Activity calls are given as the source filed them. Rule for the calls: active = hit-call score of the fitted dose curve at least 0.9, where 1 is the maximum; inactive = score below 0.9.
assay.readout: outcome

Observe how each entry below is paired with its result.
>>> print(df.to_string())
                                  structure    result
0                  O=C(OCc1ccccc1)c1ccccc1O  inactive
1  C#C[C@]1(O)CC[C@H]2[C@@H]3CCc4cc(O)ccc4[C@H]3CC[C@@]21C  inactive
2             CC(=N[Si](C)(C)C)O[Si](C)(C)C  inactive
3               c1coc(CNc2ncnc3nc[nH]c23)c1  inactive

// query Give a short answer stating reported outcome for CC(C)(C)c1cccc(O)c1 .
// result inactive
